# System: Helicobacter pylori
# TEST METHOD NOTES: Minimum inhibitory concentration against Helicobacter pylori (Helicobacter pylori) ARHp strain 81
# Assay type: functional
ENDPOINT LABEL: MIC (mg/L)

Known MIC results, listed for orientation:
Cc1c(CSc2nc3ccccc3[nH]2)cccc1SCCOC(=O)Nc1ccc(N(C)C)cc1 ... 1
Cc1ncc([N+](=O)[O-])n1CCO ... 1
Cc1c(CSc2nc3ccccc3[nH]2)cccc1SCCO ... 1
Cc1c(CSc2nc3ccccc3[nH]2)cccc1SCC(=O)NCc1cccs1 ... 1
Cc1c(CSc2nc3ccccc3[nH]2)cccc1SCCOC(=O)Nc1ccccc1 ... 0.5

(P) Cc1c(CSc2nc3ccccc3[nH]2)cccc1SCCN
(Q) Cc1c(CSc2nc3ccccc3[nH]2)cccc1SCCNC(=O)Nc1ccccc1
(R) CN(C)[C@@H]1C(O)=C(C(N)=O)C(=O)[C@@]2(O)C(O)=C3C(=O)c4c(O)cccc4[C@@](C)(O)[C@H]3C[C@@H]12
(S) CC1(C)S[C@@H]2[C@H](NC(=O)[C@H](N)c3ccc(O)cc3)C(=O)N2[C@H]1C(=O)O
Input line: Please produce an ascending ranking of these compounds based on MIC. Please list the labels in the order you were asked to rank them.
Output line: S, Q, R, P
(S: 0.06 mg/L, Q: 0.5 mg/L, R: 1 mg/L, P: 8 mg/L)

(1) Cc1c(CSc2nccs2)cccc1SCCOC(=O)Nc1ccccc1
(2) Cc1c(CSc2nc3ccccc3[nH]2)cccc1SCCNS(=O)(=O)c1cccc2cccnc12
Input line: Kindly identify which of 1 and 2 has the larger recorded MIC value. Respond using the label that marks the chosen record.
Output line: 2

(A) Cc1c(CSc2nc3ccccc3[nH]2)cccc1SCC(=O)N1CCCCC1
(B) Cc1c(CSc2nc3ccccc3[nH]2)cccc1SCC(=O)NCc1ccccc1
Input line: Field: lower recorded MIC (choose A or B ) Respond using the label that marks the chosen record.
Output line: A
(A: 0.5 mg/L, B: 1 mg/L)

###

# TEST METHOD NOTES: Maximum plasma concentration (Cmax) after oral dosing by gavage needle at 30 mg/kg in C57BL/6NTac female mice
# Type: ADME, organism-based
# Parameters: dose 30 mg/kg, route oral
# CONDITION DETAILS: mouse
ENDPOINT LABEL: Cmax (ng/mL)

Known Cmax results, listed for orientation:
Cc1c(CSc2nc3ccccc3[nH]2)cccc1SCCOC(=O)Nc1ccc(F)c(F)c1 ... 398
Cc1c(CSc2nc3ccccc3[nH]2)cccc1SCCNC(=O)Nc1ccccc1 ... 140
CC[C@H]1OC(=O)[C@H](C)[C@@H](O[C@H]2C[C@@](C)(OC)[C@@H](O)[C@H](C)O2)[C@H](C)[C@@H](O[C@@H]2O[C@H](C)C[C@H](N(C)C)[C@H]2O)[C@](C)(OC)C[C@@H](C)C(=O)[C@H](C)[C@@H](O)[C@]1(C)O ... 1000
Cc1c(CSc2nc3ccccc3[nH]2)cccc1SCCNC(=O)c1cnccn1 ... 471
Cc1c(CSc2nccs2)cccc1SCCOC(=O)Nc1ccccc1 ... 74

(a) Cc1c(CSc2nc3ccccc3[nH]2)cccc1SCCOC(=O)Nc1ccccc1
(b) Cc1c(CSc2nc3ccccc3[nH]2)cccc1SCC(=O)N1CCCCC1
Input line: Field: lower recorded Cmax (choose a or b ) Respond using the label that marks the chosen record.
Output line: b
(b: 57 ng/mL, a: 906 ng/mL)

(a) COc1cccc(NC(=O)OCCSc2cccc(CSc3nc4ccccc4[nH]3)c2C)c1
(b) Cc1c(CSc2nc3ccccc3[nH]2)cccc1SCCOC(=O)Nc1ccc(N(C)C)cc1
Input line: Field: lower recorded Cmax (choose a or b ) Respond using the label that marks the chosen record.
Output line: b

###

# Test system: Mus musculus
# TEST METHOD NOTES: AUC (area under curve) after oral dosing by gavage needle at 30 mg/kg in C57BL/6NTac female mice
# Type: ADME, organism-based, Plasma
# Parameters: dose 30 mg/kg, route oral
# CONDITION DETAILS: in vivo
ENDPOINT LABEL: AUC (ng·h/mL)

Known AUC results, listed for orientation:
COc1cccc(NC(=O)OCCSc2cccc(CSc3nc4ccccc4[nH]3)c2C)c1 ... 1630
Cc1c(CSc2nc3ccccc3[nH]2)cccc1SCC(=O)N1CCCCC1 ... 135
Cc1c(CSc2nc3ccccc3[nH]2)cccc1SCCOC(=O)Nc1ccc(N(C)C)cc1 ... 299
Cc1c(CSc2nccs2)cccc1SCCOC(=O)Nc1ccccc1 ... 99
Cc1c(CSc2nc3ccccc3[nH]2)cccc1SCCNC(=O)c1cnccn1 ... 271
Cc1c(CSc2nc3ccccc3[nH]2)cccc1SCCNC(=O)Nc1ccccc1 ... 283
CC[C@H]1OC(=O)[C@H](C)[C@@H](O[C@H]2C[C@@](C)(OC)[C@@H](O)[C@H](C)O2)[C@H](C)[C@@H](O[C@@H]2O[C@H](C)C[C@H](N(C)C)[C@H]2O)[C@](C)(OC)C[C@@H](C)C(=O)[C@H](C)[C@@H](O)[C@]1(C)O ... 1770

(A) Cc1c(CSc2nc3ccccc3[nH]2)cccc1SCCOC(=O)Nc1ccccc1
(B) Cc1c(CSc2nc3ccccc3[nH]2)cccc1SCCOC(=O)Nc1ccc(F)c(F)c1
Input line: Field: lower recorded AUC (choose A or B ) Respond using the label that marks the chosen record.
Output line: B
(B: 1130 ng·h/mL, A: 2070 ng·h/mL)
